- Test system: SK-MEL-2 melanoma
- Protocol Details: NCI tumour cell line growth inhibition, 48 h
Recorded measurements of GI50, one per entry
Assay Readout: GI50

[[record]]
molecule = "COc1ccc(/C=C/C(=O)c2cc(OC)c(OC)c(OC)c2)cc1OCC(=O)Nc1nc2ccc(OC(F)(F)F)cc2s1"
reported_result = "4.97 µM"

[[record]]
molecule = "CCC(C)[C@H]1O[C@]2(CC[C@@H]1C)C[C@@H]1C[C@@H](C/C=C(\\C)[C@@H](OC3C[C@H](OC)C(O[C@H]4C[C@H](OC)[C@@H](O)[C@H](C)O4)[C@H](C)O3)[C@@H](C)/C=C/C=C3\\CO[C@@H]4[C@H](O)C(C)=C[C@@H](C(=O)O1)[C@]34O)O2 (stereo partly drawn)"
reported_result = "2.04 µM"

[[record]]
molecule = "CCN(Cc1ccc(C)cc1)c1ccc(CO)c(Cl)c1"
reported_result = "2.2 µM"

[[record]]
molecule = "COc1cc(Nc2nc3cc(N)cc(N)c3nc2-c2ccccc2)cc(OC)c1OC"
reported_result = "15.9 µM"

[[record]]
molecule = "CS(=O)(=O)Nc1cncc(-c2ccc3ncnc(Nc4ccc(F)c(Cl)c4)c3c2)c1"
reported_result = "1.5 µM"

[[record]]
molecule = "COc1ccc2c(c1)/C(=C\\c1c(-c3cc(OC)ccc3OC)nc3sc(C)cn13)C(=O)N2C"
reported_result = "17.3 µM"

[[record]]
molecule = "O=S(=O)(NCCCNc1nccc(-c2c(-c3ccc(O)cc3)nc3sccn23)n1)c1ccc(F)cc1"
reported_result = "1.18 µM"

[[record]]
molecule = "CC(N)C(Cc1ccc(Cl)cc1)c1ccc(Cl)cc1 (stereo not drawn)"
reported_result = "13 µM"


---

- Test system: 786-0 renal
- Protocol Details: NCI tumour cell line growth inhibition, 48 h
Assay Readout: TGI

[[record]]
compound = "Cc1ccccc1N=Nc1c(O)c(S(=O)(=O)O)cc2cc(S(=O)(=O)O)ccc12"
assay_target = "786-0 renal"
assay_readout = "TGI"
reported_result = "> 100 µM"

[[record]]
compound = "Cc1ccc(S(=O)(=O)NC(=O)NCCc2cnc[nH]2)cc1"
assay_target = "786-0 renal"
assay_readout = "TGI"
reported_result = "> 100 µM"

[[record]]
compound = "O=C(NC1(c2cc3ccccc3s2)CCCCC1)C1CCC1"
assay_target = "786-0 renal"
assay_readout = "TGI"
reported_result = "> 100 µM"

[[record]]
compound = "O=c1[nH]c(=O)n(COCc2ccccc2)c2ccsc12"
assay_target = "786-0 renal"
assay_readout = "TGI"
reported_result = "> 100 µM"

[[record]]
compound = "O=c1c2c(=NCCN3CCCC3)cc3c(=O)n(CCCN4CCOCC4)c(=O)c4c(-c5ccc(CN6CCCC6)cc5)cc(c(O)n1CCCN1CCOCC1)c2c4-3"
assay_target = "786-0 renal"
assay_readout = "TGI"
reported_result = "0.383 µM"

[[record]]
compound = "Cn1cnc([N+](=O)[O-])c1Sc1nc(N)nc2c1ncn2C1OC(CO)C(O)C1O (stereo not drawn)"
assay_target = "786-0 renal"
assay_readout = "TGI"
reported_result = "> 100 µM"

[[record]]
compound = "Cc1cn([C@@H]2C[C@@H]2CO)c(=O)[nH]c1=O"
assay_target = "786-0 renal"
assay_readout = "TGI"
reported_result = "> 100 µM"

[[record]]
compound = "O=C(Nc1ccc2[nH]nc(-c3ccncc3)c2c1)[C@@H]1CCN(CC(=O)N2CCN(c3ccc(-c4ncccn4)cc3)CC2)C1"
assay_target = "786-0 renal"
assay_readout = "TGI"
reported_result = "> 100 µM"

[[record]]
compound = "O=C1NC(N2CCOCC2)=N/C1=C\\c1ccc(Cl)cc1"
assay_target = "786-0 renal"
assay_readout = "TGI"
reported_result = "> 100 µM"

[[record]]
compound = "CCCNC(=S)/N=C/c1c(O)cc(C)oc1=O"
assay_target = "786-0 renal"
assay_readout = "TGI"
reported_result = "> 100 µM"

[[record]]
compound = "CC(=O)Nc1ccc(NCC(=O)Nn2cnc3ccc(S(=O)(=O)Nc4ccc(NC(C)=O)cc4)cc3c2=O)cc1"
assay_target = "786-0 renal"
assay_readout = "TGI"
reported_result = "> 100 µM"

[[record]]
compound = "COc1cc(NS(C)(=O)=O)ccc1Nc1cc[nH]c2ccc3nccc3c12"
assay_target = "786-0 renal"
assay_readout = "TGI"
reported_result = "27.7 µM"

[[record]]
compound = "COc1ccc(C2N(c3ccc(F)cc3)C(=O)N3C(c4ccc(OC)cc4)N(c4ccc(F)cc4)C(=O)N23)cc1 (stereo not drawn)"
assay_target = "786-0 renal"
assay_readout = "TGI"
reported_result = "> 100 µM"


---

- Tested on: SN12C renal
- Protocol Details: NCI tumour cell line growth inhibition, 48 h
Recorded measurements of TGI, one per entry
Assay Readout: TGI

[[record]]
molecule = "COc1cc2c(cc1OC)[C@@H](Nc1ccc(C#N)cc1)C1COC(=O)[C@@H]1C2c1cc(OC)c(O)c(OC)c1 (some centres undefined)"
assay_readout = "TGI"
reported_result = "2.28 µM"

[[record]]
molecule = "O=c1[nH]c2nnc(COc3ccc(Cl)cc3Cl)n2nc1Cc1ccccc1"
assay_readout = "TGI"
reported_result = "> 100 µM"

[[record]]
molecule = "CC(=O)C(=[N+]=[N-])C(=O)N1CCOC1=O"
assay_readout = "TGI"
reported_result = "> 10 µM"

[[record]]
molecule = "CCSCC1CC(O)(c2ccccc2)CC(c2ccc(F)cc2)O1 (centres undefined)"
assay_readout = "TGI"
reported_result = "3.17 µM"

[[record]]
molecule = "CC(C)=CCC[C@@H](C)/C=C/C=C(\\C)C(=O)CC[C@@H]1CC[N@+]2(C)CCCC[C@H]12"
assay_readout = "TGI"
reported_result = "> 100 µM"

[[record]]
molecule = "CC(C)(CN1CCCCC1)C(=O)/C=C/c1ccc(/C=C/C(=O)C(C)(C)CN2CCCCC2)cc1"
assay_readout = "TGI"
reported_result = "0.589 µM"

[[record]]
molecule = "COc1nc2[nH]ccc2c(=O)[nH]1"
assay_readout = "TGI"
reported_result = "> 100 µM"

[[record]]
molecule = "N.N.N.N.N.[Co+3].[I-].[N-]=[N+]=[N-]"
assay_readout = "TGI"
reported_result = "> 100 µM"

[[record]]
molecule = "O=C(NCCCCCCCCCCCCNC(=O)c1cccc2ccccc12)c1cccc2ccccc12"
assay_readout = "TGI"
reported_result = "> 100 µM"


---

- Test system: OVCAR-8 ovarian
- Protocol Details: NCI tumour cell line growth inhibition, 48 h
Assay Readout: TGI

[[record]]
compound = "CCc1ccccc1N=NC(=O)NNc1ccccc1CC"
assay_readout = "TGI"
reported_result = "32.8 µM"

[[record]]
compound = "CCCCCCCCCCCCOC1C(CNC(=O)C2OC3OC(C)(C)OC3C2NC(=O)Nc2ccc(CC(=O)OC)cc2)OC2OC(C)(C)OC21 (stereo not drawn)"
assay_readout = "TGI"
reported_result = "> 100 µM"

[[record]]
compound = "COc1ccc(C2=N[C@@H](Cc3ccccc3)C(=O)Nc3ccsc32)cc1"
assay_readout = "TGI"
reported_result = "57.6 µM"

[[record]]
compound = "CC(C)C1C(=O)N(c2c(F)c(F)c(F)c(F)c2F)C(=S)N1CCS(=O)c1ccccc1 (stereo not drawn)"
assay_readout = "TGI"
reported_result = "32.6 µM"

[[record]]
compound = "CC(C)(Br)C(=O)N1CCN(C(c2ccccc2)c2ccccc2)CC1"
assay_readout = "TGI"
reported_result = "> 100 µM"

[[record]]
compound = "COP(=O)(OC)C(=O)N1N(c2ccc([N+](=O)[O-])cc2)C(=O)C(C)NC1(NNc1ccc([N+](=O)[O-])cc1)P(=O)(OC)OC (stereo not drawn)"
assay_readout = "TGI"
reported_result = "> 100 µM"

[[record]]
compound = "CC(C)=CCC[C@]1(C)C=Cc2c(O)c3c(c(CC=C(C)C)c2O1)O[C@]12C(=C[C@@H]4CC1C(C)(C)O[C@@]2(C/C=C(/C)C(=O)O)C4=O)C3=O"
assay_readout = "TGI"
reported_result = "4.19 µM"

[[record]]
compound = "Cc1cc(S(=O)(=O)Nc2n[nH]c(Nc3ccc(Cl)cc3)n2)c(S)cc1Cl"
assay_readout = "TGI"
reported_result = "> 100 µM"

[[record]]
compound = "Cc1cc(C)n(CC(Cn2nc(C)cc2C)=C(/C(Cl)=C(/Cl)Nc2ccc([N+](=O)[O-])cc2)[N+](=O)[O-])n1"
assay_readout = "TGI"
reported_result = "14.6 µM"

[[record]]
compound = "CCOC(=O)c1nc2ccc(C(F)(F)F)cc2nc1NCc1ccc(OC)cc1"
assay_readout = "TGI"
reported_result = "> 100 µM"

[[record]]
compound = "COc1c(CC=C(C)C)c(O)c(C(CC(C)C)c2c(O)c3c(c(C(C)=O)c2O)OC(C(C)(C)O)C3)c(O)c1C(C)=O (stereo not drawn)"
assay_readout = "TGI"
reported_result = "> 12.5 µM"

[[record]]
compound = "COc1cc(Nc2nc3cc(N)cc(N)c3nc2-c2ccccc2)cc(OC)c1OC"
assay_readout = "TGI"
reported_result = "34.9 µM"

[[record]]
compound = "COCC1CCCN1c1ccc(C=N/C(C#N)=C(\\N)C#N)cc1 (stereo not drawn)"
assay_readout = "TGI"
reported_result = "> 100 µM"

[[record]]
compound = "CN1c2ccccc2N(C(=O)c2ccc([N+](=O)[O-])cc2)C(CC(=O)O)c2cccn21 (stereo not drawn)"
assay_readout = "TGI"
reported_result = "> 100 µM"

[[record]]
compound = "CCOC(=O)c1c[nH]c2c(Sc3ccccc3)nccc2c1=O"
assay_readout = "TGI"
reported_result = "> 100 µM"

[[record]]
compound = "CN(c1ncccc1CNc1nc(Nc2ccc3c(c2)CC(=O)N3)ncc1C(F)(F)F)S(C)(=O)=O"
assay_readout = "TGI"
reported_result = "> 64.6 µM"

[[record]]
compound = "NNC(=S)N/N=C(\\C(=O)Nc1cccc(O)c1)C1C(=O)NC(=S)NC1=O"
assay_readout = "TGI"
reported_result = "> 100 µM"

[[record]]
compound = "COc1ccc(C2CC(c3cccc(Nc4ccnc5cc(Cl)ccc45)c3)=NN2C=O)cc1 (stereo not drawn)"
assay_readout = "TGI"
reported_result = "> 100 µM"

